Target: DCAF1(WDR) + BRD9-BD(130-250) (Homo sapiens, UniProt Q9H8M2+Q9Y4B6, E1398S)
Sequence (Q9Y4B6 1073-1399 E1398S): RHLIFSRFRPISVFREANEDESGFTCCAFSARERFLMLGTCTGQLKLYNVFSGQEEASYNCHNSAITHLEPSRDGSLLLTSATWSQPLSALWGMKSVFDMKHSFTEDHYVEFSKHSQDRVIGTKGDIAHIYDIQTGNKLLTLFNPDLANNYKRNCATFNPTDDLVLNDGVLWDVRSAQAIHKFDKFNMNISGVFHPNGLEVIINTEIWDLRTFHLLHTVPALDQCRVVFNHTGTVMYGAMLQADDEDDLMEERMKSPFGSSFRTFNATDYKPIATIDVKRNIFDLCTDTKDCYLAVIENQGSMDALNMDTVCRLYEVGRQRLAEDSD
Sequence (Q9H8M2 130-250): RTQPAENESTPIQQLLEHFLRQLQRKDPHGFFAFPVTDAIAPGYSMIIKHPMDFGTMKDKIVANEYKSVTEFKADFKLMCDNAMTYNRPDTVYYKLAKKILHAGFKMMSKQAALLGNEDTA
Assay: SPR ternary binding assay, immobilized DCAF1(WDR), BRD9-BD(130-250) in buffer
Details: SPR KD [μM], + BRD9, with additional BRD9-BD(130-250)
Endpoint Name: Kd (µM)
Write down the numeric answer in µM and omit the unit.

**Query** Can you share its Kd? I mean this compound: COc1cc(-c2cn(C)c(=O)c3cnccc23)c(OC)cc1CN1CCC(OCCCCCC(=O)N2CCN(c3ccc4c(NCCN)nc(C5(c6ccc(Cl)cc6)CCCCC5)nc4c3)CC2)CC1 [DBr-1]
**Result** 0.005
